Below: a set of entries, each annotated with reported IC50.
TARGET OR TEST SYSTEM: Mitogen-activated protein kinase kinase kinase 14 (Homo sapiens, UniProt Q99558)
Sequence (Q99558 whole entry): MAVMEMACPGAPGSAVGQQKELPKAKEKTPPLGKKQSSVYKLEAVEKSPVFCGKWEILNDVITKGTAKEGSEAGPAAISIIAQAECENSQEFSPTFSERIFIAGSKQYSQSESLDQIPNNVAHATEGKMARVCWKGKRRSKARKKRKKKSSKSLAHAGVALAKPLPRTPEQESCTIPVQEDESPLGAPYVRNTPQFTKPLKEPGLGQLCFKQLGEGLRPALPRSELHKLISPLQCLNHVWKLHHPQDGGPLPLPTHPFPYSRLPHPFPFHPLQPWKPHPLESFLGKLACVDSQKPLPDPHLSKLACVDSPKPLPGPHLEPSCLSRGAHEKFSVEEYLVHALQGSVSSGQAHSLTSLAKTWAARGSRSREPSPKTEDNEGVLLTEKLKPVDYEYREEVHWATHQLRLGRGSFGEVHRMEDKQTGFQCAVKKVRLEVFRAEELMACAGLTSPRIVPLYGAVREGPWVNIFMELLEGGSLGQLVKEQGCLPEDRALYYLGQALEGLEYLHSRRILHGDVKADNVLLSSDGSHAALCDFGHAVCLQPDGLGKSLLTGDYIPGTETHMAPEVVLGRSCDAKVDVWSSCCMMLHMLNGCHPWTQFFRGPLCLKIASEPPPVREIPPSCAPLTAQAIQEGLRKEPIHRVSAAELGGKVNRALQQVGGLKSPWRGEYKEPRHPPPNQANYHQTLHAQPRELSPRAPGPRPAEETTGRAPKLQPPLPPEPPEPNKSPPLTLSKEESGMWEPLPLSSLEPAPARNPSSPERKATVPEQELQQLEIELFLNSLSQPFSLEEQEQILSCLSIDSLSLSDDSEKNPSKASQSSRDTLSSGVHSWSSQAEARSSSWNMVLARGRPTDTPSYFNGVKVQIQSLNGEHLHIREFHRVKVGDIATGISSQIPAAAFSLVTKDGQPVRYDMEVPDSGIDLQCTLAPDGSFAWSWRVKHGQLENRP
ASSAY COMMENT: Inhibition of auto-phosphorylation of recombinant human NF-kappaB-inducing kinase (NIK/MAP3K14) activity

Here are 5 compounds together with their reported answers.
Cc1ccc([C@]2(O)CCN(C)C2=O)cc1-c1csc(-c2c[nH]c3nccnc23)n1: < 100 nM
CC1(C)Cc2cccnc2[C@]1(O)c1cccc(-c2csc(-c3c[nH]c4ncccc34)n2)c1: < 100 nM
Cc1noc2c1CC[C@@]2(O)c1cccc(-c2csc(-c3c[nH]c4ncccc34)n2)c1: < 100 nM
O[C@H]1C[C@@](O)(c2cccc(-c3csc(-c4c[nH]c5ncccc45)n3)c2)c2ncccc21: > 500 nM
CN1CC[C@@](O)(c2cccc(-c3nc(-c4ccnc5[nH]ccc45)cs3)c2)C1=O: < 100 nM

Need IC50 of `CN1C(=O)[C@](O)(c2cccc(-c3csc(-c4c[nH]c5ncccc45)n3)c2)c2ncccc21` , thanks.
< 100 nM

I have this compound here, `O[C@@]1(c2cccc(-c3csc(-c4n[nH]c5cccnc45)n3)c2)CCn2ccnc21` , and I need its recorded IC50.
≤ 500 nM

---

TARGET OR TEST SYSTEM: Mitogen-activated protein kinase kinase kinase 14 (Homo sapiens, UniProt Q99558)
ASSAY COMMENT: Inhibition of auto-phosphorylation of recombinant human NF-kappaB-inducing kinase (NIK/MAP3K14) activity
Catalogue of IC50 values

Known IC50 results, listed for orientation:
C[C@]1(O)C[C@](O)(c2cccc(-c3csc(-c4c[nH]c5ncccc45)n3)c2)c2ncccc21 [WO2022104348, Example 105]: > 0.5 µM
C[C@](O)(c1cccc(-c2csc(-c3c[nH]c4nccnc34)n2)c1)c1ncc[nH]1 [WO2022104348, Example 78]: > 0.5 µM
O[C@@]1(c2cccc(-c3csc(-c4c[nH]c5nnccc45)n3)c2)CCn2ccnc21 [WO2022104348, Example 88]: < 0.1 µM
O[C@@]1(c2cccc(-c3csc(-c4c[nH]c5ncccc45)n3)c2)CCc2scnc21 [WO2022104348, Example 32]: < 0.1 µM
O[C@@]1(c2cccc(-c3csc(-c4c[nH]c5ncc(C(F)(F)F)cc45)n3)c2)Cc2nccn2C1 [WO2022104348, Example 25]: < 0.1 µM
O=C1Nc2cccnc2[C@]1(O)c1cccc(-c2csc(-c3c[nH]c4ncccc34)n2)c1 [WO2022104348, Example 89]: > 0.5 µM
CN1CCC[C@](O)(c2cccc(-c3csc(-c4c[nH]c5nccnc45)n3)c2)C1=O [WO2022104348, Example 55]: > 0.5 µM
Cc1ccc(-c2csc(-c3c[nH]c4nccnc34)n2)cc1[C@@]1(O)CCN(C)C1=O [WO2022104348, Example 70]: > 0.5 µM

// map CN1CC[C@](O)(c2cccc(-c3cnc(-c4c[nH]c5ncccc45)s3)c2)C1=O [WO2022104348, Example 4] to recorded IC50 (system: Mitogen-activated protein kinase kinase kinase 14 (Homo sapiens, UniProt Q99558))
> 0.5 µM

Observed IC50 on Mitogen-activated protein kinase kinase kinase 14 (Homo sapiens, UniProt Q99558) for COc1cnc2[nH]cc(-c3nc(-c4cccc([C@]5(O)CCN(C)C5=O)c4)cs3)c2c1 [WO2022104348, Example 49] , please.
< 0.1 µM

What IC50 appears in the records for this compound with Mitogen-activated protein kinase kinase kinase 14 (Homo sapiens, UniProt Q99558)? O[C@@]1(c2cccc(-c3csc(-c4c[nH]c5ncc(Cl)cc45)n3)c2)Cc2nccn2C1 [WO2022104348, Example 27]
< 0.1 µM

# value lookup — system Mitogen-activated protein kinase kinase kinase 14 (Homo sapiens, UniProt Q99558), readout IC50, item O=C1Nc2cccnc2[C@@]1(O)c1cccc(-c2csc(-c3c[nH]c4ncccc34)n2)c1 [WO2022104348, Example 90]
> 0.5 µM
